- TGT: Dopamine receptors; D1 & D2 (Rattus norvegicus) (UniProt P18901+P61169)
- ASSAY PROCEDURE: Selectivity for D1 receptor was determined as the ratio of Ki (D2) to that of Ki (D1)
- Assay type: protein assay
MEASURED METRIC: Ratio

CN1CCc2cc(Br)c(O)cc2[C@@H]1c1ccccc1 | 157

a = CCCN1CCc2cc(Cl)c(O)cc2C1c1ccccc1 (racemic)
b = CN1CCc2cc(O)c(O)cc2C1c1ccccc1 (racemic)
c = Oc1cc2c(cc1Cl)CCNC2c1ccccc1 (racemic)
Please list these compounds in decreasing order of Ratio. Enter labels, ranked according to the request. c, a, b

A = CN1CCc2cc(Cl)c(O)cc2C1Cc1ccccc1 (racemic)
B = CN1CCc2cc(Cl)c(O)cc2[C@H]1c1ccccc1
Kindly identify the item with the lower Ratio figure among these two: A and B Please respond with the label that marks your chosen entry. A

----------
- TGT: D(2) dopamine receptor (Rattus norvegicus, UniProt P61169)
- Sequence (P61169 whole entry): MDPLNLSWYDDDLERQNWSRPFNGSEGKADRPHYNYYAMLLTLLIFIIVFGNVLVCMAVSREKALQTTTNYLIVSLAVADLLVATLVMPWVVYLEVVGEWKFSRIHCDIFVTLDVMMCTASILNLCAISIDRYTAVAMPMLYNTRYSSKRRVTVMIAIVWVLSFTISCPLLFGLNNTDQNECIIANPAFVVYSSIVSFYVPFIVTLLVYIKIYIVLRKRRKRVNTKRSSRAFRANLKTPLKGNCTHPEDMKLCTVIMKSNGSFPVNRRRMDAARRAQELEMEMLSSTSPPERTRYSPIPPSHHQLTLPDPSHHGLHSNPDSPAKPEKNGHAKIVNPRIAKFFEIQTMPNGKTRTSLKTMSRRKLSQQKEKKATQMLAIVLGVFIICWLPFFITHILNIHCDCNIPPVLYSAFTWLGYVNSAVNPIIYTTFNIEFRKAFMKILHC
- ASSAY PROCEDURE: Binding affinity towards dopamine […] receptor using [3H]spiperone was determined in rat striatal membranes
- Assay type: cell membranes, Striatum, Membrane
pKi: −log10 of the molar value.
Reported pKi values for the following molecules.

Oc1cc2c(cc1O)C1c3ccccc3CCN1CC2 (racemic) | < 5.30
CN1CCc2cc(Br)c(O)cc2[C@H]1c1ccccc1 | < 5.30
CN1Cc2ccccc2C2c3cc(O)c(Br)cc3CCC21 (racemic) | < 5.52
CN1CCc2cc(O)c(O)cc2C1c1ccccc1 (racemic) | 6.54
Oc1cc2c(cc1Cl)CCN1CCc3ccccc3C21 (racemic) | < 5.30

Look up pKi for this molecule: CN1CCc2ccc(O)cc2C1c1ccccc1 (racemic) < 5.30

Data request, read-out pKi, for CN1CCc2cc(Br)c(O)cc2[C@@H]1c1ccccc1 5.89

Can you look up the measured pKi of CN1CCc2cc(O)ccc2[C@H]1c1ccccc1 for me? < 5.30

----------
- TGT: D(1A) dopamine receptor (Rattus norvegicus)
- ASSAY PROCEDURE: Binding affinity against dopamine receptor D1
pKi: −log10 of the molar value.
MEASURED METRIC: pKi

Study these solved cases before continuing.
CN1Cc2ccccc2C2c3cc(O)c(Br)cc3CCC21 (racemic) | 6.85
CN1CCc2cc(O)c(O)cc2C1c1ccccc1 (racemic) | 6.73

A = CN1CCc2cc(Cl)c(O)cc2[C@@H]1c1ccccc1
B = Oc1cc2c(cc1Cl)CCNC2c1ccccc1 (racemic)
C = Oc1cc2c(cc1O)C1c3ccccc3CCN1CC2 (racemic)
hey, can you rank those compounds up there by pKi? biggest number first please Write the labels out in the order the request specifies. A, B, C
(A: 8.04, B: 6.85, C: 5.86)

A = Oc1cc2c(cc1Cl)CCN1CCc3ccccc3C21 (racemic)
B = CN1CCc2cc(Br)c(O)cc2[C@@H]1c1ccccc1
C = CCCN1CCc2cc(Cl)c(O)cc2C1c1ccccc1 (racemic)
Rank the 3 compounds: largest pKi first, smallest last. Answer format: the labels, in the requested order. B, C, A

----------
- TGT: D(2) dopamine receptor (Rattus norvegicus, UniProt P61169)
- ASSAY PROCEDURE: Binding affinity against dopamine (D2) receptor
pKi: −log10 of the molar value.
MEASURED METRIC: pKi

CN1CCc2cc(Br)c(O)cc2[C@@H]1c1ccccc1 | 5.88
CN1CCc2cc(O)c(O)cc2C1c1ccccc1 (racemic) | 6.53
CCCN1CCc2cc(Cl)c(O)cc2C1c1ccccc1 (racemic) | 5.72

1 = CN1CCc2cc(Cl)c(O)cc2[C@H]1c1ccccc1
2 = Oc1cc2c(cc1Cl)CCNC2c1ccccc1 (racemic)
Given the listed records, identify the one among 1 and 2 with higher pKi. Respond using the label that marks the chosen record. 2
(2: 5.43, 1: 4.71)

----------
- TGT: D(1A) dopamine receptor (Rattus norvegicus, UniProt P18901)
- Sequence (P18901 whole entry): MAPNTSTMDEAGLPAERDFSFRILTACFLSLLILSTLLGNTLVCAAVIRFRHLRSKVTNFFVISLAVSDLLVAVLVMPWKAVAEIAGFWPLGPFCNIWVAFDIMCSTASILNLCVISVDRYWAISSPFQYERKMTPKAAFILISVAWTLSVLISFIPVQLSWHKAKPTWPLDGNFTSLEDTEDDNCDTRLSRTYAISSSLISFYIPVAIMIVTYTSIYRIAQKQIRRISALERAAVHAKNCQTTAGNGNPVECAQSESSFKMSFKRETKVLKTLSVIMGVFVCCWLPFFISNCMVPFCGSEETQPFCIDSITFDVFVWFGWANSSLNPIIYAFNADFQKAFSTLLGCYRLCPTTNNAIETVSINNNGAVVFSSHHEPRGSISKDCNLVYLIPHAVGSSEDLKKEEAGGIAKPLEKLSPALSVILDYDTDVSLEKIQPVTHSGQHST
- ASSAY PROCEDURE: Binding affinity towards dopamine receptor D1 using [3H]SCH-23390 was determined in rat striatal membranes
- Type: cell membranes, Striatum, Membrane
MEASURED METRIC: Ki (µM)

Reference set (4 entries):
CN1CCc2cc(O)c(O)cc2C1c1ccccc1 (racemic) | 0.37
CN1CCc2cc(Br)c(O)cc2[C@@H]1c1ccccc1 | 0.0083
CCCN1CCc2cc(Cl)c(O)cc2C1c1ccccc1 (racemic) | 0.179
Oc1cc2c(cc1Cl)CCN1CCc3ccccc3C21 (racemic) | 0.83

P = CN1Cc2ccccc2C2c3cc(O)c(Br)cc3CCC21 (racemic)
Q = Oc1cc2c(cc1Cl)CCNC2c1ccccc1 (racemic)
R = Oc1cc2c(cc1O)C1c3ccccc3CCN1CC2 (racemic)
Order field: Ki | Direction: descending (largest first) Ranked list of labels, please, in the requested order. R, Q, P

----------
- TGT: Dopamine receptors; D1 & D2 (Rattus norvegicus) (UniProt P18901+P61169)
- ASSAY PROCEDURE: Selectivity for D1 receptor was determined as the ratio of Ki (D2) to that of Ki (D1)
- Assay type: protein assay
MEASURED METRIC: Ratio
In your answer, state the number alone without any accompanying words.

CN1CCc2cc(Cl)c(O)cc2[C@@H]1c1ccccc1 | 206

# lookup: Ratio of CN1Cc2cc(Cl)c(O)cc2C(c2ccccc2)C1 (racemic) 3

May I ask what Ratio has been recorded for Oc1cc2c(cc1Cl)CNCC2c1ccccc1 (racemic) ? 6.4

----------
- TGT: D(1A) dopamine receptor (Rattus norvegicus)
- ASSAY PROCEDURE: Binding affinity against dopamine receptor D1
pKi: −log10 of the molar value.
MEASURED METRIC: pKi

CN1CCc2cc(Br)c(O)cc2[C@H]1c1ccccc1 | 8.08
Oc1cc2c(cc1Cl)CNCC2c1ccccc1 (racemic) | 6.55
CN1CCc2cc(Cl)c(O)cc2[C@H]1c1ccccc1 | 8.18

----------
pKi values for the compounds below.
- TGT: D(1A) dopamine receptor (Rattus norvegicus)
- ASSAY PROCEDURE: Binding affinity towards dopamine receptor D1 using [3H]SCH-23390 was determined in rat striatal membranes
- Type: cell membranes, Striatum, Membrane
pKi: −log10 of the molar value.

CN1CCc2cc(O)ccc2[C@H]1c1ccccc1 | < 5.30

Which pKi is listed for CN1CCc2cc(Br)c(O)cc2[C@H]1c1ccccc1 ? < 5.30

Any idea what pKi was measured for CN1CCc2ccc(O)cc2C1c1ccccc1 (racemic) ? < 5.30
